Record form. Attribute: protein stability index. Fill in for each entry.
B1: NP_002788.1 (parent)
chain: DGWIRVSSDNVADLHEKYSGSTP

Variants of: B1
protocol: protein stability index of a GFP-peptide fusion (GPS, HEK-293T) (PSI 1-6); higher = more stable;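 note: lentivirally expressed fusion library, cells FACS-sorted into six equal-sized GFP/DsRed ratio bins, PSI computed from sequencing read fractions per bin weighted by bin number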
assay.context: c terminus: native
Give bare numbers.

Worked examples, 3 variants total:
changes: H15K
quantity.name: protein stability index
recorded.number: 2.77
//
changes: S19Q
quantity.name: protein stability index
recorded.number: 2.41
//
changes: K17T
quantity.name: protein stability index
recorded.number: 3.27

State recorded protein stability index for all listed variants.
1. I4E
2. R5V
3. H15E
4. I4S

OUT:
3.9
2.42
2.98
3.47

Report protein stability index for every entry below.
1. Y18L
2. I4R
3. T22L
4. R5F
5. T22E
6. V11Y

OUT:
[2.69, 3.53, 2.28, 2.52, 2.64, 2.67]

For each of the variants below, note its protein stability index.
1. D9G
2. Y18R
3. A12W
4. S21E
5. L14N

OUT:
2.82
3.3
2.46
4.56
2.98

Hello, I would appreciate it if you could give protein stability index for each entry below.
1. S7G
2. I4W

OUT:
1: 3.63; 2: 3.58

List the reported protein stability index of each variant below.
1. S8W
2. T22M

OUT:
[2.23, 2]
